Where do these numbers come from? They come from the supplement of paper PMC10724198.

Tested on: Saccharomyces cerevisiae
experiment: protein stability index of tFT-peptide fusion (C-terminal peptide) (PSI (0-1 scale)); higher = more stable (slower turnover)
condition parameters: genetic background: wild type; temperature: 30 C
assay metric: protein stability index
Number, no unit, nothing else.

## Task // protein stability index lookup, key: "RPRPKRCGPRSV"
## Result 0.672

## Task // protein stability index lookup, key: "WFALFYFLVSAF"
## Result 0.266

## Task // protein stability index lookup, key: "SGACRLEESGKV"
## Result 0.755

## Task // protein stability index lookup, key: "WGVGWGMVEGWR"
## Result 0.701

## Task // protein stability index lookup, key: "CRPTGSSTRFQL"
## Result 0.718

## Task // protein stability index lookup, key: "PCPPPRSPPLAP"
## Result 0.745

## Task // protein stability index lookup, key: "DCFSLVLRFTPV"
## Result 0.64

## Task // protein stability index lookup, key: "LIRIHPNGPKFM"
## Result 0.708

## Task // protein stability index lookup, key: "GDTKKRTQGRGV"
## Result 0.653

## Task // protein stability index lookup, key: "SGGCDNGRMRWV"
## Result 0.682

## Task // protein stability index lookup, key: "PLPFPSSPPPPP"
## Result 0.672

## Task // protein stability index lookup, key: "RHPPPRSSPPDL"
## Result 0.639

## Task // protein stability index lookup, key: "AVTLAPPRLRPL"
## Result 0.761

## Task // protein stability index lookup, key: "IMNNSKIYRSVG"
## Result 0.659

## Task // protein stability index lookup, key: "LFFFRLFVFWVF"
## Result 0.203

## Task // protein stability index lookup, key: "PAPPFPIRPPAA"
## Result 0.653

## Task // protein stability index lookup, key: "RAPPKTTPHPAE"
## Result 0.693

## Task // protein stability index lookup, key: "NGTGGVSSLAFG"
## Result 0.64

## Task // protein stability index lookup, key: "RPMKGLSMGSCA"
## Result 0.66

## Task // protein stability index lookup, key: "PREFLVYDGVRV"
## Result 0.638

## Task // protein stability index lookup, key: "THSTLRRFSGYS"
## Result 0.7

## Task // protein stability index lookup, key: "YRSLFPAPPLHP"
## Result 0.675

## Task // protein stability index lookup, key: "WALWGFVFWDWW"
## Result 0.497

## Task // protein stability index lookup, key: "VCVACLRYPTFS"
## Result 0.677

## Task // protein stability index lookup, key: "GWPVGSLKTPCR"
## Result 0.726

## Task // protein stability index lookup, key: "WQILVRLIDFYT"
## Result 0.436

## Task // protein stability index lookup, key: "AIEKKVNQTPFK"
## Result 0.659

## Task // protein stability index lookup, key: "ASPPAYGPPPPP"
## Result 0.681

## Task // protein stability index lookup, key: "SRVRSPPWTRKF"
## Result 0.739

## Task // protein stability index lookup, key: "DVPLFLPLPVSV"
## Result 0.392

## Task // protein stability index lookup, key: "FCFLLLVSFFFV"
## Result 0.31

## Task // protein stability index lookup, key: "LSTSINTIIPGP"
## Result 0.71

## Task // protein stability index lookup, key: "PLPPRPHPLLSP"
## Result 0.653

## Task // protein stability index lookup, key: "GHKVTKDAIRIR"
## Result 0.654

## Task // protein stability index lookup, key: "HLAQYSSSLHLM"
## Result 0.554

## Task // protein stability index lookup, key: "GVSAPGDAGAVP"
## Result 0.654

## Task // protein stability index lookup, key: "PPPHAARSLFSL"
## Result 0.733

## Task // protein stability index lookup, key: "SARGRTRTADPS"
## Result 0.677

## Task // protein stability index lookup, key: "FFFPSPPPPSLV"
## Result 0.749

## Task // protein stability index lookup, key: "CWAGKITAKIDV"
## Result 0.666

## Task // protein stability index lookup, key: "KLKDLTRIKIFR"
## Result 0.722

###

Tested on: Saccharomyces cerevisiae
experiment: protein stability index of tFT-peptide fusion (C-terminal peptide) (PSI (0-1 scale)); higher = more stable (slower turnover)
condition parameters: genetic background: das1 deletion; temperature: 30 C
Kindly supply the reported protein stability index values for the records listed here.
Number, no unit, nothing else.

## Task Look up protein stability index with Saccharomyces cerevisiae for this sequence: GSLLLGLISFLL [EGT2 C-terminal 12 aa]
## Result 0.669

## Task Look up protein stability index with Saccharomyces cerevisiae for this sequence: YLYVFLQQARLE [YBR032W C-terminal 12 aa]
## Result 0.51

## Task Look up protein stability index with Saccharomyces cerevisiae for this sequence: DDEDEEDDDFKE [CHZ1 C-terminal 12 aa]
## Result 0.725

## Task Look up protein stability index with Saccharomyces cerevisiae for this sequence: ICKALVKQDLGL [LAP2 C-terminal 12 aa]
## Result 0.697

## Task Look up protein stability index with Saccharomyces cerevisiae for this sequence: ILLHLEYAAAYS [STN1 C-terminal 12 aa]
## Result 0.521

## Task Look up protein stability index with Saccharomyces cerevisiae for this sequence: ALDKYLIEIHHW [NPR3 C-terminal 12 aa]
## Result 0.718

###

Tested on: Saccharomyces cerevisiae
experiment: protein stability index of tFT-peptide fusion (C-terminal peptide) (PSI (0-1 scale)); higher = more stable (slower turnover)
condition parameters: genetic background: das1 deletion; temperature: 30 C
assay metric: protein stability index
Number, no unit, nothing else.

## Task // protein stability index lookup, key: EDVDEDTTPFNV [YTP1 C-terminal 12 aa]
## Result 0.714

## Task // protein stability index lookup, key: KELEPVPPVSKS [OMS1 C-terminal 12 aa]
## Result 0.701

## Task // protein stability index lookup, key: IKKYNITSPFLD [NSE4 C-terminal 12 aa]
## Result 0.696

## Task // protein stability index lookup, key: EKANDIGFHKYR [RPS29B C-terminal 12 aa]
## Result 0.68

## Task // protein stability index lookup, key: NCANCVYFSSRG [YDL221W C-terminal 12 aa]
## Result 0.717

## Task // protein stability index lookup, key: PDDQIHSILLSL [MET13 C-terminal 12 aa]
## Result 0.708

## Task // protein stability index lookup, key: NEDDYLAVKYVL [FES1 C-terminal 12 aa]
## Result 0.687

## Task // protein stability index lookup, key: TADIVYIDSELD [SPE1 C-terminal 12 aa]
## Result 0.675

## Task // protein stability index lookup, key: FVFALSYPYEEI [ALG2 C-terminal 12 aa]
## Result 0.713

## Task // protein stability index lookup, key: RYVIFQSCGLIL [MRX8 C-terminal 12 aa]
## Result 0.657

## Task // protein stability index lookup, key: AGFGCLDSIILY [GSH2 C-terminal 12 aa]
## Result 0.707

## Task // protein stability index lookup, key: KSADPDAMDTTE [RVB2 C-terminal 12 aa]
## Result 0.702

###

Tested on: Saccharomyces cerevisiae
experiment: protein stability index of tFT-peptide fusion (C-terminal peptide) (PSI (0-1 scale)); higher = more stable (slower turnover)
condition parameters: genetic background: das1 deletion; temperature: 30 C
assay metric: protein stability index
Number, no unit, nothing else.

## Task Look up protein stability index with Saccharomyces cerevisiae for this sequence: KLRNSNNTRAED [AVO2 C-terminal 12 aa]
## Result 0.67

## Task Look up protein stability index with Saccharomyces cerevisiae for this sequence: FANKSSSGGDEV [YIL089W C-terminal 12 aa]
## Result 0.685

## Task Look up protein stability index with Saccharomyces cerevisiae for this sequence: RRDYWLSKGQAL [TRF5 C-terminal 12 aa]
## Result 0.717

## Task Look up protein stability index with Saccharomyces cerevisiae for this sequence: LCPVFFTWTNLR [YSR3 C-terminal 12 aa]
## Result 0.656

## Task Look up protein stability index with Saccharomyces cerevisiae for this sequence: NVFNPDQPRMGP [YLR154W-A C-terminal 12 aa]
## Result 0.711

## Task Look up protein stability index with Saccharomyces cerevisiae for this sequence: MEKSDRYIQETW [TAH18 C-terminal 12 aa]
## Result 0.703

###

System: Saccharomyces cerevisiae
experiment: protein stability index of tFT-peptide fusion (C-terminal peptide) (PSI (0-1 scale)); higher = more stable (slower turnover)
condition parameters: genetic background: wild type; temperature: 30 C
Decide by protein stability index: equal to or exceeding 0.7 means T, less means F.

## Task Reported protein stability index at or above 0.7? "FFVWLGWGMFYG"
## Result F

## Task Reported protein stability index at or above 0.7? "NKNKKKIKHKRK"
## Result F

## Task Reported protein stability index at or above 0.7? "FSVFFSPQRGCM"
## Result T

## Task Reported protein stability index at or above 0.7? "LLMWVLFDCHYS"
## Result F

## Task Reported protein stability index at or above 0.7? "FCSPFFFFLFRL"
## Result F

## Task Reported protein stability index at or above 0.7? "KDKSQKKERQKT"
## Result F

## Task Reported protein stability index at or above 0.7? "RDAWLGMSQYTF"
## Result T

## Task Reported protein stability index at or above 0.7? "KRKKKRKQKGKQ"
## Result T

## Task Reported protein stability index at or above 0.7? "GFLAVTVACVWR"
## Result F

## Task Reported protein stability index at or above 0.7? "IRRAGPMVAKGK"
## Result F

## Task Reported protein stability index at or above 0.7? "VIISDPNKDTRL"
## Result F

## Task Reported protein stability index at or above 0.7? "ISRLLMAMESRN"
## Result F
